Taken from paper PMC9482650.

# measuredOn: T1, PDZD7_2, Q9H5P4
# T1 sequence (Q9H5P4 205-303, limits assumed, looked up): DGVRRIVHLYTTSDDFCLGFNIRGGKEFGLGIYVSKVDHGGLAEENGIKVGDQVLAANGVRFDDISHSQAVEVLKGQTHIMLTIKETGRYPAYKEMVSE
# assayRemarks: holdup assay
# Set-up: key: below the threshold = too weak to quantify, mostly under pKd 3.1 to 4
# conditionParameters: plain residues with an end cap or a label only (N-terminal biotin on a linker: ttds)
observationType: pKd

INSERT INTO results (binder, observationtype, result) VALUES
  ('SRPQRTQTQV [HPV67-E6, A4U7F2]', 'pKd', 'below the threshold'),
  ('QSARYRDTEL [TJP2, Q9UDY2]', 'pKd', 'below the threshold'),
  ('STLTIFETAL [ABCC4, O15439]', 'pKd', 4.54);
